GI50: recorded values
- System: A498 renal
- Run description: NCI tumour cell line growth inhibition, 48 h
Property measured: GI50

>>> readout_value("COc1ccc(/C=C(/C#N)n2nnc3cccc(F)c32)cc1")
"1.22 µM"
>>> readout_value("CC(C)[C@H]1COC(=O)N1[C@@H]1C(=O)N([C@@H](CCC(=O)N2CCN(C3CCCC3)CC2)C(=O)N[C@@H]2CCCc3ccccc32)[C@@H]1/C=C/c1cccc(Br)c1")
"1.4 µM"
>>> readout_value("O=C1OC(O)[C@@H]2[C@H]1[C@H]1CC[C@@H]2O1 (some centres undefined)")
"7.07 µM"
>>> readout_value("[Cl-].[La+3].[O-]/N=C(\\c1ccccc1)c1ccccn1.[O-]/N=C(\\c1ccccc1)c1ccccn1.[O-]/N=C(\\c1ccccc1)c1ccccn1")
"77.6 µM"
>>> readout_value("O=c1c2sccc2n(CC2COc3ccccc3O2)c(=O)n1O (centres undefined)")
"13.3 µM"
>>> readout_value("Cc1cc2c(cc1Cl)SC(N(N(C)C)S(=O)(=O)c1ccc(Cl)cc1)=NS2(=O)=O")
"15.8 µM"
>>> readout_value("Cc1cccc(NC(=O)Cn2cnc3sc(C(=O)OC(C)C)c(C)c3c2=O)c1")
"16.1 µM"
>>> readout_value("O=C1c2cc3c(cc2-c2c1c1ccc(F)cc1c(=O)n2CCCNCCO)OCO3")
"0.137 µM"
>>> readout_value("C=C1C(=O)O[C@H]2[C@H]1CC/C(COC(=O)c1c[nH]c3ccccc13)=C\\CC[C@@]1(C)O[C@@H]21")
"0.267 µM"

====

- Tested on: MDA-N
- Run description: NCI tumour cell line growth inhibition, 48 h
Property measured: TGI

>>> readout_value("COP(=O)(/C=C/c1cc(C(=O)OCc2ccccc2)n(S(=O)(=O)c2ccccc2)c1)OC")
"> 100 µM"
>>> readout_value("N=Nc1c(OC(=O)Nc2cccc(Cl)c2)[nH]c2ccccc12")
"10.1 µM"
>>> readout_value("CCOC(=O)c1ccc(NCC#CCN2CCOCC2)cc1")
"> 100 µM"
>>> readout_value("CSC(=S)N/N=C(\\C)c1ccc(S(=O)(=O)N(C)c2ccccc2)cc1")
"> 100 µM"

====

- Test system: MALME-3M melanoma
- Run description: NCI tumour cell line growth inhibition, 48 h
TGI: recorded values
Property measured: TGI

>>> readout_value("CC(=O)/C(=C\\c1cccc([N+](=O)[O-])c1)C(=O)Nc1ccccc1C")
"> 100 µM"
>>> readout_value("O=C(Nc1nccs1)c1c(O)nc2sccn2c1=O")
"> 10 µM"
>>> readout_value("CC1=C[C@@H]2Cc3nc4cc(Cl)ccc4c(N)c3[C@H](C1)C2")
"24.6 µM"
>>> readout_value("CSc1nsc(-c2ccccc2)[s+]1")
"> 100 µM"
>>> readout_value("CN1CCN(CCCn2c(=O)c3sc4ncccc4c3n3nnc(-c4ccccc4)c23)CC1")
"17.9 µM"
>>> readout_value("O=C1c2ccccc2-c2c1c(-c1ccc(F)cc1)nc1ccc3ccccc3c21")
"> 100 µM"

====

- System: CCRF-CEM leukemia
- Run description: NCI tumour cell line growth inhibition, 48 h
Property measured: TGI

>>> readout_value("CC(=O)OC1COC(n2ccc3cc(Br)c([N+](=O)[O-])cc32)C(OC(C)=O)C1OC(C)=O (stereo unspecified)")
"81.7 µM"
>>> readout_value("O=C(/C=C/c1ccc(Cl)cc1)c1ccc(Nc2ccnc3cc(Cl)ccc23)cc1")
"> 100 µM"
>>> readout_value("Cn1cnc([N+](=O)[O-])c1S(=O)(=O)Oc1cccc2ccccc12")
"9.3 µM"
>>> readout_value("CS(=O)c1ncc2c(n1)-c1ccccc1OC2 (stereo unspecified)")
"> 100 µM"
>>> readout_value("CSc1nc(NC2OCC(OC(C)=O)C(OC(C)=O)C2OC(C)=O)c(N=CC=Nc2c(NC3OCC(OC(C)=O)C(OC(C)=O)C3OC(C)=O)nc(SC)[nH]c2=O)c(=O)[nH]1 (stereo unspecified)")
"> 100 µM"
>>> readout_value("Cc1cc(N(CCOS(C)(=O)=O)CCOS(C)(=O)=O)ccc1C=O")
"> 100 µM"
>>> readout_value("c1ccc(COc2cccc3ccc[n+](Cc4ccccc4)c23)cc1")
"> 100 µM"
>>> readout_value("[O-][n+]1ccccc1Sc1nc(Sc2cccc[n+]2[O-])nc(Sc2cccc[n+]2[O-])n1")
"> 100 µM"
>>> readout_value("CC(=O)OC1=CC(n2cc(F)c(=O)[nH]c2=O)OC(C)C1=O (stereo unspecified)")
"> 100 µM"
>>> readout_value("O=[N+]([O-])c1ccc(Oc2c(Cl)cc(S(=O)(=O)/N=C(\\NO)Nc3ccc(Cl)cc3)cc2Cl)cc1")
"24.5 µM"
>>> readout_value("CCOC(=O)C1=C(C)C2C=C(c3cccs3)CC(c3ccc(Cl)cc3)=C2OC1=O (stereo unspecified)")
"60.1 µM"
>>> readout_value("CCOC(=O)NC(=O)c1cn(CCCO)c(=O)[nH]c1=O")
"> 100 µM"
>>> readout_value("CSc1nsc(-c2ccccc2)[s+]1")
"> 100 µM"
>>> readout_value("CCN(CC)/C(SCc1ccccc1)=C(\\C(Cl)=C(Cl)Cl)[N+](=O)[O-]")
"52.2 µM"
>>> readout_value("CCCCCCOc1ccc(C(=O)NOC)cc1")
"> 100 µM"
>>> readout_value("Cc1cc(C(=O)CCCCOc2ccc(C3=NCCO3)cc2)c(C)n1C")
"46.6 µM"
